tested on: A2780; experiment: Cytotoxicity against compound-sensitive human A2780 cells after 24 hrs by MTT assay; type: functional, cell-based; details: A2780, 24 h
Grouping key: IC50. Bins: lower (below 20 µM), middle (20 µM to below 50 µM), upper (50 µM or more)

| smiles record | answer label |
| --- | --- |
| CCCCC[C@@H](CCC[C@@H]1CC=CC(=O)O1)OC | lower |
| CCCCC[C@H](C[C@@H](O)C[C@H]1CC=CC(=O)O1)OC | middle |
| CCCCC[C@@H](C[C@@H](O)C[C@H]1CC=CC(=O)O1)OC | middle |
| CCCCC[C@H](C[C@@H](O)C[C@@H]1CC=CC(=O)O1)OC | upper |
| CCCCC[C@@H](CCC[C@H]1CC=CC(=O)O1)OC | middle |
| CCCCC[C@@H](C[C@H](O)C[C@H]1CC=CC(=O)O1)OC | upper |
| CCCCC[C@H](CCC[C@H]1CC=CC(=O)O1)OC | lower |

Query: Hi there! Could you help me figure out the category for CC(=O)O[C@H]1C(=O)[C@@]2(C)[C@H]([C@H](OC(=O)c3ccccc3)[C@]3(O)C[C@H](OC(=O)[C@H](O)[C@@H](NC(=O)c4ccccc4)c4ccccc4)C(C)=C1C3(C)C)[C@]1(OC(C)=O)CO[C@@H]1C[C@@H]2O please?
Response: lower

====

assay: Displacement of pironetin from tubulin in cell-free system assessed as unbound pironetin concentration at 200 uM after 15 mins by HPLC method
What Activity was measured for each of the following?
Answers are plain numbers, in µM.

| smiles record | Activity, µM |
| --- | --- |
| CCCCC[C@H](CCC[C@H]1CC=CC(=O)O1)OC | 15 |
| CCCCC[C@@H](C[C@H](O)C[C@@H]1CC=CC(=O)O1)OC | 10 |
| CCCCC[C@H](CCC[C@@H]1CC=CC(=O)O1)OC | 15 |
| CCCCC[C@H](C[C@H](O)C[C@@H]1CC=CC(=O)O1)OC | 10 |

Hello, I would appreciate it if you could give Activity for each entry below.
1. CCCCC[C@H](C[C@H](O)C[C@H]1CC=CC(=O)O1)OC
2. CCCCC[C@@H](CCC[C@@H]1CC=CC(=O)O1)OC

Response:
10
15

====

test system: A2780; experiment: Cytotoxicity against compound-sensitive human A2780 cells after 24 hrs by MTT assay; format: functional, cell-based; conditions: A2780, 24 h
parameter: log10 IC50 (log10 of the value in µM)
Annotation: log10 of IC50, µM basis.

Observe how each entry below is paired with its result.
| compound | result |
| --- | --- |
| CCCCC[C@@H](C[C@H](O)C[C@@H]1CC=CC(=O)O1)OC | 1.55 |
| CCCCC[C@H](CCC[C@@H]1CC=CC(=O)O1)OC | 1.16 |
| C/C=C/C[C@H](C)[C@@H](OC)[C@@H](C)[C@H](O)C[C@H]1OC(=O)C=C[C@H]1CC [PIRONETIN] | -2.54 |

For every record below, what is its log10 IC50?
1. CCCCC[C@H](C[C@H](O)C[C@@H]1CC=CC(=O)O1)OC
2. CCCCC[C@H](C[C@H](O)C[C@H]1CC=CC(=O)O1)OC

Response:
1.36
1.64

====

Field: IC50. Provide a value for each of the compounds that follow.
assay: Cytotoxicity against compound-resistant human A2780AD cells after 24 hrs by MTT assay; assay type: functional, cell-based; details: A2780 ADR
Numbers only, in µM.

Reference set (4 entries):
| compound | IC50 (µM) |
| --- | --- |
| CCCCC[C@H](CCC[C@H]1CC=CC(=O)O1)OC | 12.2 |
| C/C=C/C[C@H](C)[C@@H](OC)[C@@H](C)[C@H](O)C[C@H]1OC(=O)C=C[C@H]1CC [PIRONETIN] | 0.003 |
| CCCCC[C@H](C[C@@H](O)C[C@@H]1CC=CC(=O)O1)OC | 91.5 |
| CCCCC[C@H](C[C@@H](O)C[C@H]1CC=CC(=O)O1)OC | 18.1 |

Now let's try a different one.
Query: Quote IC50 reported for CCCCC[C@@H](CCC[C@@H]1CC=CC(=O)O1)OC please.
Response: 11.5

====

test: Cytotoxicity against compound-resistant human A2780AD cells after 24 hrs by MTT assay; assay type: functional, cell-based; settings: A2780 ADR
parameter: pIC50
One number for each entry, as −log10 of the molar value.

Could you tell me pIC50 for each of these molecules? They are listed below.
1. CCCCC[C@@H](C[C@H](O)C[C@H]1CC=CC(=O)O1)OC
2. CCCCC[C@H](C[C@H](O)C[C@H]1CC=CC(=O)O1)OC
3. CCCCC[C@H](CCC[C@@H]1CC=CC(=O)O1)OC
4. CCCCC[C@H](C[C@H](O)C[C@@H]1CC=CC(=O)O1)OC
5. CCCCC[C@@H](CCC[C@H]1CC=CC(=O)O1)OC

Response:
1: 4.32; 2: 4.24; 3: 4.69; 4: 4.52; 5: 5.05

====

test: Displacement of pironetin from tubulin in cell-free system assessed as bound pironetin concentration at 200 uM after 15 mins by HPLC method
Would you mind telling me the reported Activity of each entry?
Answers are plain numbers, in µM.

Known results for molecules:
| smiles record | result |
| --- | --- |
| CCCCC[C@@H](CCC[C@@H]1CC=CC(=O)O1)OC | 10 |
| CCCCC[C@H](CCC[C@@H]1CC=CC(=O)O1)OC | 10 |
| CCCCC[C@H](C[C@H](O)C[C@@H]1CC=CC(=O)O1)OC | 4 |
| CCCCC[C@H](CCC[C@H]1CC=CC(=O)O1)OC | 10 |
| CCCCC[C@@H](C[C@H](O)C[C@@H]1CC=CC(=O)O1)OC | 4 |

Query: Recall and state the measured Activity for CCCCC[C@H](C[C@H](O)C[C@H]1CC=CC(=O)O1)OC .
Response: 4

====

For each entry below, report its IC50 value.
assay: Cytotoxicity against compound-resistant human A2780AD cells after 24 hrs by MTT assay; assay type: functional, cell-based; details: A2780 ADR
Give bare numbers, in µM.

Example compounds with recorded IC50:
| compound | IC50 [µM] |
| --- | --- |
| CC(=O)O[C@H]1C(=O)[C@@]2(C)[C@H]([C@H](OC(=O)c3ccccc3)[C@]3(O)C[C@H](OC(=O)[C@H](O)[C@@H](NC(=O)c4ccccc4)c4ccccc4)C(C)=C1C3(C)C)[C@]1(OC(C)=O)CO[C@@H]1C[C@@H]2O [PACLITAXEL] | 0.949 |
| CCCCC[C@@H](C[C@@H](O)C[C@@H]1CC=CC(=O)O1)OC | 46.3 |
| CCCCC[C@@H](C[C@@H](O)C[C@H]1CC=CC(=O)O1)OC | 25.2 |

Now take the following compound into account.
Query: Report IC50 for CCCCC[C@@H](C[C@H](O)C[C@@H]1CC=CC(=O)O1)OC
Response: 26.3

====

Exercise: state measured Activity for each of the compounds provided.
test: Inhibition of tubulin assembly assessed as concentration of tubulin required to produce assembly at 100 uM after 30 mins
One number for each entry, in µM.

For orientation, consider the following solved cases.
| smiles record | Activity [µM] |
| --- | --- |
| CCCCC[C@@H](CCC[C@@H]1CC=CC(=O)O1)OC | 3.75 |
| CCCCC[C@H](CCC[C@@H]1CC=CC(=O)O1)OC | 3.79 |
| CCCCC[C@H](C[C@@H](O)C[C@H]1CC=CC(=O)O1)OC | 3.44 |
| CCCCC[C@@H](CCC[C@H]1CC=CC(=O)O1)OC | 3.73 |
| CCCCC[C@H](C[C@H](O)C[C@H]1CC=CC(=O)O1)OC | 3.39 |

Query: Item CCCCC[C@H](CCC[C@H]1CC=CC(=O)O1)OC : provide Activity
Response: 3.85

meta.source: ChEMBL document CHEMBL1777695
